Test system: CCRF-CEM
Assay: Cytotoxicity against human CCRF-CEM cells by CellTiter-Glo 2.0 assay
Type: functional, cell-based
IC50 less than 5 µM is Criterion met; IC50 greater than or equal to 5 µM is Criterion not met.

>>> discrete_label("CC(C)OC(=O)[C@H](Cc1ccccc1)NP(=O)(COCCn1cc(-c2cccc(-c3noc(=O)[nH]3)c2)c2c(N)ncnc21)N[C@@H](Cc1ccccc1)C(=O)OC(C)C")
"Criterion not met"
>>> discrete_label("CC(C)OC(=O)[C@H](Cc1ccccc1)NP(=O)(COCCn1cc(-c2cccc(C(=O)O)c2)c2c(N)ncnc21)N[C@@H](Cc1ccccc1)C(=O)OC(C)C")
"Criterion not met"
>>> discrete_label("Cc1cn(CCOCP(=O)(N[C@@H](Cc2ccccc2)C(=O)OC(C)C)N[C@@H](Cc2ccccc2)C(=O)OC(C)C)c2ncnc(N)c12")
"Criterion not met"
>>> discrete_label("CC(C)OC(=O)[C@H](Cc1ccccc1)NP(=O)(COCCn1cc(-c2ccco2)c2c(N)ncnc21)N[C@@H](Cc1ccccc1)C(=O)OC(C)C")
"Criterion met"
>>> discrete_label("COc1cccc(-c2cn(CCOCP(=O)(N[C@@H](Cc3ccccc3)C(=O)OC(C)C)N[C@@H](Cc3ccccc3)C(=O)OC(C)C)c3ncnc(N)c23)c1")
"Criterion met"
>>> discrete_label("CC(C)OC(=O)[C@H](Cc1ccccc1)NP(=O)(COCCn1cc(-c2cccs2)c2c(N)ncnc21)N[C@@H](Cc1ccccc1)C(=O)OC(C)C")
"Criterion met"
>>> discrete_label("CCc1cn(CCOCP(=O)(N[C@@H](Cc2ccccc2)C(=O)OC(C)C)N[C@@H](Cc2ccccc2)C(=O)OC(C)C)c2ncnc(N)c12")
"Criterion not met"
>>> discrete_label("CC(C)OC(=O)[C@H](Cc1ccccc1)NP(=O)(COCCn1cc(C(C)C)c2c(N)ncnc21)N[C@@H](Cc1ccccc1)C(=O)OC(C)C")
"Criterion not met"
>>> discrete_label("COc1ccc(-c2cn(CCOCP(=O)(N[C@@H](Cc3ccccc3)C(=O)OC(C)C)N[C@@H](Cc3ccccc3)C(=O)OC(C)C)c3ncnc(N)c23)cc1")
"Criterion not met"
>>> discrete_label("CC(C)OC(=O)[C@H](Cc1ccccc1)NP(=O)(COCCn1cc(-c2ccc([N+](=O)[O-])cc2)c2c(N)ncnc21)N[C@@H](Cc1ccccc1)C(=O)OC(C)C")
"Criterion met"
>>> discrete_label("CC(C)OC(=O)[C@H](Cc1ccccc1)NP(=O)(COCCn1cc(-c2cccc(S(N)(=O)=O)c2)c2c(N)ncnc21)N[C@@H](Cc1ccccc1)C(=O)OC(C)C")
"Criterion not met"

----------
Molecular target: Calmodulin-sensitive adenylate cyclase (Bacillus anthracis, UniProt P40136)
Sequence (P40136 whole entry): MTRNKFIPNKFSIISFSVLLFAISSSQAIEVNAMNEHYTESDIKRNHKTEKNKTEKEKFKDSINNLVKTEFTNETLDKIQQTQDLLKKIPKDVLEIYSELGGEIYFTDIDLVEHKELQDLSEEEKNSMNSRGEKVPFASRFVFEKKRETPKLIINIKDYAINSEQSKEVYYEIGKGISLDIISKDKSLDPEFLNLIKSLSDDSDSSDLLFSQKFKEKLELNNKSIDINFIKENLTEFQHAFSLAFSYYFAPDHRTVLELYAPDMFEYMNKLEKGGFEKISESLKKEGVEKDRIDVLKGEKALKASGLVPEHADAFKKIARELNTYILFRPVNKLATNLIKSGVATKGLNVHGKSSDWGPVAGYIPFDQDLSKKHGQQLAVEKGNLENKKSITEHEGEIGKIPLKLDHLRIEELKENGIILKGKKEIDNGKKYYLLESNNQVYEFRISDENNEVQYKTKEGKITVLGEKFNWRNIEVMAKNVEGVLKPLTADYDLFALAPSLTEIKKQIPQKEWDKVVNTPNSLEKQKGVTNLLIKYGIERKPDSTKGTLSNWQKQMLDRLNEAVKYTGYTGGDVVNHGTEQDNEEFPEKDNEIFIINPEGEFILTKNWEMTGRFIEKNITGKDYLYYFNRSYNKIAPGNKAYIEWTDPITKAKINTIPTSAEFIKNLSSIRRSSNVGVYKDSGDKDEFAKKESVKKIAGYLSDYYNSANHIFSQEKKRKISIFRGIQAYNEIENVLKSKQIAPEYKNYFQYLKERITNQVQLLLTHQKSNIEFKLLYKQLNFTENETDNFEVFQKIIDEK
readout: IC50 (nM)

>>> observed("Nc1ncnc2c1ncn2CCOCP(=O)(O)OP(=O)(O)OP(=O)(O)O [ADEFOVIR DIPHOSPHATE]")
13.5
>>> observed("Nc1ncnc2c1c(-c1ccccn1)cn2CCOCP(=O)(O)OP(=O)(O)OP(=O)(O)O")
50.8
>>> observed("Cc1cn(CCOCP(=O)(O)OP(=O)(O)OP(=O)(O)O)c2ncnc(N)c12")
108
>>> observed("COc1ccc(-c2cn(CCOCP(=O)(O)OP(=O)(O)OP(=O)(O)O)c3ncnc(N)c23)cc1")
88.4
